# Test system: Staphylococcus aureus
# Protocol Details: Antibacterial activity against Staphylococcus aureus NRS119 measured after 16 to 20 hrs in presence of 2% NaCl by microdilution broth method
# Assay type: functional
Readout: MIC (µg/mL)

- Smiles Structure: "CS(=O)(=O)/C(C#N)=C/c1cc(Cc2ccc(Cl)c(Cl)c2)ccc1OC(F)(F)F"
  MIC / µg/mL: 8
- Smiles Structure: "CS(=O)(=O)/C(C#N)=C/c1cc(Cc2ccc(Cl)c(Cl)c2)ccc1F"
  MIC / µg/mL: 16
- Smiles Structure: "N#C/C(=C\\c1cc(Cc2ccc(Cl)c(Cl)c2)ccc1F)S(=O)(=O)c1ccccn1"
  MIC / µg/mL: 16
- Smiles Structure: "CS(=O)(=O)/C(C#N)=C/c1c(F)ccc(Cc2ccc(Cl)c(Cl)c2)c1F"
  MIC / µg/mL: 16
- Smiles Structure: "CS(=O)(=O)/C(C#N)=C/c1cc(-c2ccc(Cl)c(Cl)c2)ccc1F"
  MIC / µg/mL: 16
